Test system: HL-60
Assay: NCI tumour cell line growth inhibition, 48 h
Calls of active or inactive are those of the source. Cut-off read from the data, not from the text of the source: active = GI50 up to about 1.1 µM and inactive = higher.
parameter measured: GI50

compound	endpoint result
COC(=O)C1=Nc2c(C)nn(-c3ccccc3)c2N=C(c2ccccc2)C1	> 10 µM (inactive)
CN(C)CCC(/C=C/c1ccccc1)=N\Nc1ccc(Cl)c(Cl)c1	2.7 µM (inactive)
CC1CC[C@@]2(OC1)OC1C[C@H]3[C@@H]4CC[C@H]5CC(OC6OC(CO)C(O)C(OC7OC(CO)C(OC8OC(CO)C(O)C(OC9OC(CO)C(O)C(O)C9O)C8OC8OC(CO)C(O)C(O)C8O)C(O)C7O)C6O)[C@H](O)CC5(C)[C@H]4CCC3(C)C1[C@@H]2C (stereo partly specified)	2.57 µM (inactive)
CCCCNN	> 100 µM (inactive)
COc1ccc(C(=O)/C=C/c2ccc(OCCCCCCCCCCOc3ccc(/C=C/C(=O)c4ccc(OC)cc4)cc3)cc2)cc1	> 100 µM (inactive)
COC(=O)c1cc(CC2Cc3cc4c(cc3C2=O)CCC4)cc2c1CCC2 (stereo unspecified)	> 100 µM (inactive)
CCO/C=N\c1c(C#N)c(-c2ccc(Cl)cc2)cn1-c1ccc(C)cc1	> 100 µM (inactive)
c1ccc2c(Cc3[nH]c4ccccc4c3Cc3c[nH]c4ccccc34)c[nH]c2c1	1.86 µM (inactive)
Cc1ccc2c(c1)SC(c1cc3c(cc1Br)OCO3)S2 (stereo unspecified)	22.6 µM (inactive)
CN(CCCN1C(=O)c2cccc3cc([N+](=O)[O-])cc(c23)C1=O)CCN(C)CCCN1C(=O)c2cccc3cc([N+](=O)[O-])cc(c23)C1=O	19.6 µM (inactive)
CN(C)CCn1c2c3ccccc3ccc2c2oc(=O)c3ccccc3c21	> 100 µM (inactive)
CS(=O)(=O)Oc1cccc(/C=N/N=C(\N)NO)c1	19 µM (inactive)
O=C(Cc1nc2ccccc2s1)C(=O)Nc1ccc(Cl)cc1	> 100 µM (inactive)
O=C(CSc1nnc(Cc2ccccc2)o1)Nc1ccc(Cl)cc1Cl	> 100 µM (inactive)
Fc1ccc(C(OCCN2CC3CCC(C2)N3CCCc2ccccc2)c2ccc(F)cc2)cc1	3.08 µM (inactive)
Cc1ccc(S(=O)(=O)NNC(=O)Nc2ccc(Cl)cc2)cc1	> 100 µM (inactive)

---

System: SK-MEL-28
Experiment: NCI tumour cell line growth inhibition, 48 h
Activity calls are given as the source filed them. No stated cut-off is given here; in the data, active = GI50 up to about 1.1 µM and inactive = higher.

compound	assay target	GI50
CNc1ncnc2c1cnn2Cc1cn(COCC(O)CO)nn1 (stereo unspecified)	SK-MEL-28	> 100 µM (inactive)
COC(OC)[C@@H]1OC[C@H](n2cnc3c(N)ncnc32)[C@H]1O	SK-MEL-28	> 100 µM (inactive)
CC(=O)c1ccc(NC(=O)C(=O)Nn2c(S)nc3ccccc3c2=O)cc1	SK-MEL-28	> 100 µM (inactive)
O=C(CC1(O)C(=O)Nc2ccccc21)c1ccccc1Cl (stereo unspecified)	SK-MEL-28	> 100 µM (inactive)
c1ccc2c[n+](Cc3ccnc4ccccc34)ccc2c1	SK-MEL-28	> 100 µM (inactive)
CN(Cc1cccc2ccsc12)/N=C\c1ccc(Cl)cc1	SK-MEL-28	> 100 µM (inactive)
Cc1ccccc1C1CC(c2ccccc2)=NO1 (stereo unspecified)	SK-MEL-28	> 100 µM (inactive)
CCCCCC[C@@H]1CCC2C(CO)[C@@H](O)CC[C@@H]2C1 (stereo partly specified)	SK-MEL-28	19.6 µM (inactive)
c1ccc2c(c1)CCc1c-2n(CCN2CCOCC2)c2ccccc12	SK-MEL-28	34.6 µM (inactive)
C=C1CC(Cn2cc(Br)c(=O)[nH]c2=O)(c2ccc(Br)cc2)OC1=O (stereo unspecified)	SK-MEL-28	7.19 µM (inactive)
O=Cc1ccccc1CCn1c(=O)c2cc3c(=O)n(CCc4ccccc4C=O)c(=O)c3cc2c1=O	SK-MEL-28	> 100 µM (inactive)
COc1cc(C=C2C(C)=NN(c3cccc(Cl)c3)C23SCC(=O)N3c2nc3ccccc3s2)ccc1O (stereo unspecified)	SK-MEL-28	33 µM (inactive)
Cc1c(-c2ccccc2)c(=O)oc2ccc(Cl)cc12	SK-MEL-28	> 100 µM (inactive)
Clc1ccc(/C=N/c2ccc3c(c2)Cc2ccccc2-3)c(Cl)c1	SK-MEL-28	> 100 µM (inactive)
O=C1C2CC(Cl)C(SSC3CC4C(=O)N(SC(Cl)(Cl)C(Cl)Cl)C(=O)C4CC3Cl)CC2C(=O)N1SC(Cl)(Cl)C(Cl)Cl (stereo unspecified)	SK-MEL-28	2.15 µM (inactive)
NC(=O)c1csc(C2C=CC(CO)O2)n1 (stereo unspecified)	SK-MEL-28	> 100 µM (inactive)

---

Test system: OVCAR-4
Experiment: NCI tumour cell line growth inhibition, 48 h
Activity calls are given as the source filed them. Rule as the data show it: active = GI50 up to about 1.1 µM and inactive = higher.
Reported GI50 values are given for each entry in this list.

compound	GI50
O=C(/C=C/c1ccccc1)NC1C=Nc2ccc([N+](=O)[O-])cc2NC1=O (stereo not given)	> 100 µM (inactive)
COC(=O)[C@@H]1C(=O)O[C@@H](c2cc(OC)c(OC)cc2OC)[C@@H]1C(=O)OC.COC(=O)[C@H]1C(=O)O[C@@H](c2cc(OC)c(OC)cc2OC)[C@@H]1C(=O)OC	> 100 µM (inactive)
C=C=C(Sc1ccccc1)C(C)(C)O	> 100 µM (inactive)
Clc1nc2c(C#Cc3ccccc3)ncnc2n1C1CCCCO1 (stereo not given)	9.51 µM (inactive)
COc1ccc2[nH]c3c(c2c1)CCc1ccccc1-3	37.6 µM (inactive)
O=C(Cc1ccccc1)N/N=C(/c1nc2ccc([N+](=O)[O-])cc2nc1O)C(O)c1ccc(C(O)/C(=N/NC(=O)Cc2ccccc2)c2nc3ccc([N+](=O)[O-])cc3nc2O)cc1 (stereo not given)	> 100 µM (inactive)
COc1ccc2c(c1)N(CCC1CCCCN1C)c1ccccc1S2 (stereo not given) [OXYRIDAZINE]	11.1 µM (inactive)
N=C(N)SCCSC(=N)N	> 100 µM (inactive)
COc1cc2c(cc1O)NC(=O)[C@@H]1CCCN1C2=O	> 100 µM (inactive)
COc1cc(C(=O)NO)ccc1O	> 100 µM (inactive)
COC(=O)C1C(O)C(C)C(O)C(C)(O)C=C(C)C2=C3C(=C(C)C(=O)c4c(O)c(c(C)c(OC(C)=O)c43)NC(=O)C(C)=C/C=C\C(C)(O)C(O)C(C)C1O)OCO2 (stereo not given)	56.4 µM (inactive)
CNC(=O)C1(C#N)C(c2ccccc2)C(C#N)(C(=O)NC)C1c1ccccc1 (stereo not given)	> 100 µM (inactive)
CCCCCCC(=O)OC[n+]1cccc(-c2c(COC(=O)NC(C)C)c(COC(=O)NC(C)C)c3n2CCC3)c1	33.7 µM (inactive)
CC(C)=CCC[C@@H](C)c1c2nc3ccccc3[nH]c-2c(C)c(=O)c1O	2.88 µM (inactive)
O=CN1CCN(C=S)CC1	> 100 µM (inactive)
Cc1ccccc1C1CC(c2ccccc2)=NO1 (stereo not given)	> 100 µM (inactive)
COc1cc(C2S/C(=C/c3ccccc3)C(=O)N2c2ccccc2Cl)cc(OC)c1OC (stereo not given)	28.2 µM (inactive)
Cc1cc(OCc2nnc3n2S(=O)(=O)c2ccccc2N3C)ccc1Cl	8 µM (inactive)
CCOC(=O)C(C(=O)Cc1ccccc1)c1ccccc1 (stereo not given)	> 100 µM (inactive)
O=C(/C=C/c1ccc(Cl)cc1)c1ccncc1	22.5 µM (inactive)

---

System: OVCAR-3
Test: NCI tumour cell line growth inhibition, 48 h
The source made the active and inactive calls. No stated cut-off is given here; in the data, active = GI50 up to about 1.1 µM and inactive = higher.
Reported GI50 values are given for each entry in this list.

compound	assay target	GI50
O=C1C(Cl)=C(NCCN2CCOCC2)C(=O)c2ncccc21	OVCAR-3	1.6 µM (inactive)
CN(O)C(=O)CCC(NC(=O)CCC(N)C(=O)O)C(=O)NCC(=O)O (stereo unspecified)	OVCAR-3	> 100 µM (inactive)
CCOC(=O)N1N=NC2C3OC(C[C@@]3(C#N)OC(C)=O)[C@H]21 (stereo partly specified)	OVCAR-3	> 100 µM (inactive)
CC(=O)O[C@H]1C(=O)[C@@]2(C)[C@H]([C@H](OC(=O)c3ccccc3)[C@@]3(O)C[C@H](O)C(C)=C1C3(C)C)[C@]1(OC(C)=O)CO[C@@H]1C[C@@H]2O	OVCAR-3	22.2 µM (inactive)
CCN(CC)c1cccc2c1C1(O)CCC3(CC21)OCCCCO3 (stereo unspecified)	OVCAR-3	84.9 µM (inactive)
Cc1cc2c([N+](=O)[O-])cc3c(c2o1)C(=O)C=CC3=O	OVCAR-3	5.64 µM (inactive)
CCOC(=O)c1c(CN2CCCC2)n(-c2ccccc2)c2cc(Br)c(OC)cc12	OVCAR-3	24.9 µM (inactive)
c1ccc(NCCSc2nc3ccccc3s2)cc1	OVCAR-3	88.3 µM (inactive)
CCc1cccc(C)c1NC(=O)CCc1n[nH]c(=S)o1	OVCAR-3	> 100 µM (inactive)
CC(=O)c1c(-c2ccccc2)c(-c2ccc(OCCN(C)C)cc2)n2ccccc12	OVCAR-3	16.6 µM (inactive)
O=[N+]([O-])/C(C(Cl)=C(Cl)Cl)=C(\Nc1ccccc1)n1nnc2ccccc21	OVCAR-3	48.1 µM (inactive)
CC1=NN(c2nc(N)nc(CO)n2)C(C)(C)C1	OVCAR-3	> 100 µM (inactive)
CC1(C)CC(=O)c2c(nc3c(ccc4ccccc43)c2-c2ccc(NC(=O)CCCC(=O)Nc3ccc(-c4c5c(nc6c4ccc4ccccc46)CC(C)(C)CC5=O)cc3)cc2)C1	OVCAR-3	> 100 µM (inactive)
N#CC(c1ccccc1)N1CCCN(C(C#N)c2ccccc2)C1c1ccccc1O (stereo unspecified)	OVCAR-3	48.3 µM (inactive)
N#CC(C(=O)C(=O)C(C#N)c1ccc(Br)cc1)c1ccc(Br)cc1 (stereo unspecified)	OVCAR-3	9.38 µM (inactive)
CC(=O)c1c(-c2ccc(Cl)cc2)c(C#N)c(=S)n(C2OC(CO)C(O)C(O)C2O)c1C (stereo unspecified)	OVCAR-3	30.8 µM (inactive)
